Cited source: patent US9839642B2

Reported IC50 values follow for various compounds
molecular target: NDM-1 (Klebsiella pneumoniae); assay: Enzyme activity: determination of IC50, fluorescence assay with CCF2-FA substrate; assay type: biochemical; conditions: NDM-1 enzyme 1 pM, CCF2-FA 1.25 μM, 2 hours at 25° C.; read-out: NDM1 IC50
Numeric only. Scale: µM

                                   compound  measured_quantity  uom  numeric_value
0  CCC[C@H](C(=O)O)[C@H](Cc1ccc(C2CCNC2)cc1)c1nnn[nH]1 (some centres unmarked)               IC50   µM          0.146
1  CC(C)C[C@H](C(=O)O)[C@H](Cc1ccc(NCC2CNCCC2O)nc1)c1nnn[nH]1 (some centres unmarked)               IC50   µM           0.12
2  CCC[C@H](C(=O)O)[C@H](Cc1ccc(-c2cnc(C)c(C)n2)cc1)c1nnn[nH]1               IC50   µM          0.066
3  CCC[C@H](C(=O)O)[C@H](Cc1cccc(N2CCN(C(C)=O)CC2)c1)c1nn[nH]n1               IC50   µM           0.15

# context switch: different compound, same IC50
Exam item: # lookup: IC50 of CCC[C@H](C(=O)O)[C@H](Cc1cccc(F)c1)c1nnn[nH]1
Marked response: 0.075

----------
biological target: VIM-1 (Pseudomonas aeruginosa, UniProt A0A0F7KYQ8); assay: Enzyme activity: determination of IC50, fluorescence assay with CCF2-FA substrate; format: biochemical; conditions: VIM-1 enzyme 30 pM, CCF2-FA 1.25 μM, 2 hours at 25° C.; read-out: VIM1 IC50
MEASURED QUANTITY: IC50 (nM)
Numeric only. Scale: nM

Exam item: # lookup: IC50 of CC(C)C[C@H](C(=O)O)[C@H](Cc1ccc(C2=CCNC2)c(F)c1)c1nn[nH]n1 [Example 452, 2,2,2-trifluoroacetate]
Marked response: 0.937

----------
target: NDM-1 (Klebsiella pneumoniae, UniProt C7C422); assay: Enzyme activity: determination of IC50, fluorescence assay with CCF2-FA substrate; assay type: biochemical; details: enzyme 1 pM, CCF2-FA 1.25 μM, 2 hours at 25° C.; read-out: NDM1 IC50
Sequence (C7C422 29-270, looked up, species assumed): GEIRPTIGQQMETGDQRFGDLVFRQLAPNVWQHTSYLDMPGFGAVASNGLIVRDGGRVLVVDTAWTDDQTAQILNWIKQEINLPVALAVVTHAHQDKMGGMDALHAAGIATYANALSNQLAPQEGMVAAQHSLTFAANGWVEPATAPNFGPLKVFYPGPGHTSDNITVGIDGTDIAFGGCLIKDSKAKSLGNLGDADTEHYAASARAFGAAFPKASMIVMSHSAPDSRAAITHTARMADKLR
MEASURED QUANTITY: IC50 (nM)
Numeric only. Scale: nM

In [3]: df
Out[3]:
                                   molecule  uom  numeric_value
0  CCC(C)[C@H](C(=O)O)[C@H](Cc1ccccc1)c1nnn[nH]1 (stereo partly drawn)   nM             31
1  CCC[C@H](C(=O)O)[C@H](Cc1ccc(C(N)=O)cc1)c1nn[nH]n1   nM             93
2  CC(C)[C@H](C(=O)O)[C@H](Cc1ccc(NCCN)nc1)c1nnn[nH]1   nM            320
3  CC(C)C[C@H](C(=O)O)[C@H](Cc1cnc(N)s1)c1nnn[nH]1   nM            140
4  CCC[C@H](C(=O)O)[C@H](Cc1ccc(-c2ccc(C3(O)CNC3)cc2)cn1)c1nnn[nH]1   nM            500

# context switch: different molecule, same IC50
Exam item: # lookup: IC50 of CCC[C@H](C(=O)O)[C@H](Cc1ccc(-c2cccc(CN3CCOCC3)c2)cc1)c1nn[nH]n1
Marked response: 64
